- test.summary: qHTS of pediatric cancer cell lines to identify multiple opportunities for drug repurposing: Primary screen for NB-EBc1 cells (AID 1347095); also: potency is read from the fitted curve at half-maximal effect
- particulars: NB-EBc1 neuroblastoma viability, CellTiter-Glo luminescence, 48 h; series mostly up to 46 µM
Inconclusive results are not listed. Calls of active or inactive are those of the source. Calls follow the shape of the dose curve; as a rule, active = well fitted cell-killing curve with a large enough effect; inconclusive = small, poorly fitted or top-dose-only effect; inactive = no such curve, though single readings can be large or run the other way.
measured.property: Potency

Example cases with answers are listed next.
CC(O)=C(C#N)C(=O)Nc1ccc(C(F)(F)F)cc1 :: 4.18 µM (active)
C[C@H]1[C@H](O)O[C@@H]2O[C@@]3(C)CC[C@@H]4[C@H](C)CC[C@@H]1[C@@]24OO3 :: 3.72 µM (active)
CC(C)C[C@H](NC(=O)c1cc2ccccc2s1)C(=O)N1CCN(C(=O)[C@H](CO)NS(=O)(=O)c2ccc(Cl)cc2Cl)CC1 :: 26.4 µM (active)
O=c1[nH]c(=O)n([C@H]2C[C@@H](O)[C@@H](CO)O2)cc1C(F)(F)F :: 18.7 µM (active)

Continue with the compound presented below.
(Q) Param item = C=C1[C@H](n2cnc3c(=O)[nH]c(N)nc32)C[C@H](O)[C@H]1CO ; retrieve measured Potency.
(A) 2.09 µM (active)
